- measurement.protocol: Microsomal metabolic stability
- Type: in vitro ADME
- experimental.context: mouse, microsomes, pH 7.4
- Experimental: The metabolic stability assay was performed by incubating 0.4 μg/ml of each test compound with human and mouse liver microsomes (Xenotech, Lot# 1210057 and 1310211, respectively) suspended in 0.1 M pH 7.4 phosphate buffer at 37°C and 0.4 mg/ml protein concentration. […]
readout.name: microsomal CLint at 0.4 μg/ml

# microsomal CLint at 0.4 μg/ml lookup, item Cl.N=C(NN=Cc1ccc(Cl)cc1)NN=Cc1ccc(Cl)cc1 [NCL812]
< 7 µL/min/mg

---

Attribute: MIC50
- Tested on: vancomycin-resistant enterococci (VRE)
- measurement.protocol: MIC, broth micro-dilution (CLSI)
- Assay type: cell-based, enterococci (porcine isolates)
- experimental.context: Enterococcus, VRE, S3 Table isolates; absence of FBS
Could you give me the number in µg/mL? Just the number is fine.

Below are worked cases with known answers.
CC1(C)S[C@@H]2[C@H](NC(=O)[C@H](N)c3ccccc3)C(=O)N2[C@H]1C(=O)O    1
Cl.N=C(NN=Cc1ccc(Cl)cc1)NN=Cc1ccc(Cl)cc1    2

Shift focus to the following entry.
I'd like to know its MIC50. The compound in question is Cc1ccc(/C=N/Nc2cc(N/N=C/c3ccc(C)cc3)nc(N)n2)cc1
2
